Target: human muscarinic M1 receptor (Homo sapiens, UniProt P11229)
Sequence (P11229 whole entry): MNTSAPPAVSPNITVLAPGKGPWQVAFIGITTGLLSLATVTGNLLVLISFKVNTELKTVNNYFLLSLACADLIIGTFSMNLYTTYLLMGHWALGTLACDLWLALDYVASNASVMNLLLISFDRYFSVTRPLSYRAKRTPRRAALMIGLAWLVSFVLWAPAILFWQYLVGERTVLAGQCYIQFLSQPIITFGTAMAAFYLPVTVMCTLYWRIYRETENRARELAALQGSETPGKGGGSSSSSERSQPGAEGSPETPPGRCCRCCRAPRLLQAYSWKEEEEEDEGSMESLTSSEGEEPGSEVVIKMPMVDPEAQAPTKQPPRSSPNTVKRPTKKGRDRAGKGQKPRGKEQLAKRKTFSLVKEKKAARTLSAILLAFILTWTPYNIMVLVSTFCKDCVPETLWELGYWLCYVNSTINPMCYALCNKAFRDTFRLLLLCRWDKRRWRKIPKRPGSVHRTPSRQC
Experiment: Alphascreen Surefire phospho-ERK1/2 functional assay, M1
Assay type: cell-based
Settings: CHO cells stably expressing human M1; phospho-ERK1/2; relative to ACh
Method: ERK1/2 phosphorylation is a downstream consequence of both Gq/11 and Gi/o protein coupled receptor activation, making it highly suitable for the assessment of M1, M3 (Gq/11 coupled) and M2, M4 receptors (Gi/o coupled), rather than using different assay formats for different receptor subtypes. CHO cells stably expressing the human muscarinic M1, M2, M3 or M4 receptor were plated (25K/well) onto 96-well tissue culture plates in MEM-alpha+10% dialysed FBS. […]
Measurement kind: % Emax cf. ACh (M1) (%)
Give the value, in units of %, as a plain number.

For the compound CCOC(=O)N1CCC2(CC(N3CCC(CN(C(C)=O)C4CC4)CC3)C2)C1 (single isomer, unassigned) [2-12 Isomer 2] , give its reported % Emax cf. ACh (M1).
6

For the compound CCOC(=O)N1CCC2(CC(N3CCC(N(CC4CC4)C(C)=O)CC3)C2)C1 (single isomer, unassigned) [2-20 Isomer 2] , give its reported % Emax cf. ACh (M1).
113

For the compound CCOC(=O)N1CCC2(CC(N3CCC(N(CC(C)(C)F)C(C)=O)CC3)C2)C1 (single isomer, unassigned) [2-26 Isomer 1] , give its reported % Emax cf. ACh (M1).
23

For the compound CCN(C(C)=O)C1CCN(C2CC3(CCN(C(=O)OC)C3)C2)CC1 (single isomer, unassigned) [2-17 Isomer 2] , give its reported % Emax cf. ACh (M1).
80

For the compound CCOC(=O)N1CCC2(CC(N3CCC(N(CC4(OC)CCC4)C(C)=O)CC3)C2)C1 (single isomer, unassigned) [2-30 Isomer 2] , give its reported % Emax cf. ACh (M1).
104

For the compound CCOC(=O)N1CCC2(CC(N3CCC(C(C)n4cccn4)CC3)C2)C1 (single isomer, unassigned) [2-65 Isomer 2a] , give its reported % Emax cf. ACh (M1).
43

For the compound CCOC(=O)N1CCC2(CC(N3CCC(N(CC4(O)CCC4)C(C)=O)CC3)C2)C1 (single isomer, unassigned) [2-31 Isomer 2] , give its reported % Emax cf. ACh (M1).
78

For the compound CCOC(=O)N1CCC2(CC(N3CCC(N(CC4CC4)C(C)=O)CC3)C2)C1 (single isomer, unassigned) [2-20 Isomer 1] , give its reported % Emax cf. ACh (M1).
17

For the compound CCOC(=O)N1CCC2(CC(N3CCC(N(CC4(C)CCC4)C(C)=O)CC3)C2)C1 (single isomer, unassigned) [2-21 Isomer 1] , give its reported % Emax cf. ACh (M1).
51

For the compound CCN(C(C)=O)C1CCN(C2CC3(CCN(C(=O)OC)C3)C2)CC1 (single isomer, unassigned) [2-17 Isomer 1] , give its reported % Emax cf. ACh (M1).
27

For the compound CCOC(=O)N1CCC2(CC(N3CCC(N(C(C)=O)C4CC4)CC3)C2)C1 (single isomer, unassigned) [2-3 Isomer 2] , give its reported % Emax cf. ACh (M1).
93

For the compound CCOC(=O)N1CCC2(CC(N3CCC(N(CC(C)(C)F)C(C)=O)CC3)C2)C1 (single isomer, unassigned) [2-26 Isomer 2] , give its reported % Emax cf. ACh (M1).
109

For the compound CCOC(=O)N1CCC2(CC(N3CCC(N(CC(C)(C)OC)C(C)=O)CC3)C2)C1 (single isomer, unassigned) [2-29 Isomer 1] , give its reported % Emax cf. ACh (M1).
17

For the compound CCOC(=O)N1CCC2(CC(N3CCC(N(CC(C)C)C(C)=O)CC3)C2)C1 (single isomer, unassigned) [2-19 Isomer 1] , give its reported % Emax cf. ACh (M1).
32

For the compound CCOC(=O)N1CCC2(CC(N3CCC(N(CC)C(C)=O)CC3)C2)C1 (single isomer, unassigned) [2-2 Isomer 2] , give its reported % Emax cf. ACh (M1).
91

For the compound CCOC(=O)N1CCC2(CC(N3CCC(N(CC4(O)CCC4)C(C)=O)CC3)C2)C1 (single isomer, unassigned) [2-31 Isomer 1] , give its reported % Emax cf. ACh (M1).
27

For the compound CCOC(=O)N1CCC2(CC(N3CCC(N(CC(C)C)C(C)=O)CC3)C2)C1 (single isomer, unassigned) [2-19 Isomer 2] , give its reported % Emax cf. ACh (M1).
115

For the compound CCOC(=O)N1CCC2(CC(N3CCC(N(CC4(OC)CCC4)C(C)=O)CC3)C2)C1 (single isomer, unassigned) [2-30 Isomer 1] , give its reported % Emax cf. ACh (M1).
33

For the compound CCOC(=O)N1CCC2(CC(N3CCC(N(CC(C)(C)OC)C(C)=O)CC3)C2)C1 (single isomer, unassigned) [2-29 Isomer 2] , give its reported % Emax cf. ACh (M1).
99
